Target: Serine/threonine-protein kinase PLK1 (Homo sapiens) (UniProt P53350)
Sequence (P53350 whole entry, looked up, the tested form may be a part): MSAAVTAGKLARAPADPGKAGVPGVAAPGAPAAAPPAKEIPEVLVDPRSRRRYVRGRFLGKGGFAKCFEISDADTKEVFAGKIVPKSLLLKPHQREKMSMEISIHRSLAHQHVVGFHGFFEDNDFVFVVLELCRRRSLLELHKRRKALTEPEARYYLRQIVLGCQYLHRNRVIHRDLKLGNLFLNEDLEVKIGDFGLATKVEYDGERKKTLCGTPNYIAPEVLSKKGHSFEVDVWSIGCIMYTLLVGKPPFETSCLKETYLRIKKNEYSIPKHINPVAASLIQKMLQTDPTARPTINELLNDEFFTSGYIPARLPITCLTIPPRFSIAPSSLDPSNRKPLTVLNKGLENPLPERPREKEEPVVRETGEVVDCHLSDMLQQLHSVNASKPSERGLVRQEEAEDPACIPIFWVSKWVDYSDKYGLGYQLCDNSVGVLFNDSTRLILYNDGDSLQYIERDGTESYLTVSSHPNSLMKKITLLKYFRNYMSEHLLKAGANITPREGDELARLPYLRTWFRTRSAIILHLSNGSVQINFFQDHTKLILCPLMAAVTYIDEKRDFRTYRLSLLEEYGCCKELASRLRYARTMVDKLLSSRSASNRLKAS
Assay: Plk1 polo box domain binding inhibitors, SAR follow-up, biochemical, fluorescence polarization, purchased analogs (AID 1053)
Settings: Plk1 PBD fluorescence polarization peptide binding; at 20 µM; stronger effect = higher value
Endpoint: inhibition (%)

[[record]]
molecule = "CCCCCCC(=O)N(CN1C(=O)c2ccccc2C1=O)c1ccc(OCc2ccccc2)cc1"
endpoint = "inhibition"
reported_measurement = -7.37

[[record]]
molecule = "CCn1nc(-c2ccc(OC)cc2)nc2c(=O)n(C)c(=O)nc1-2"
endpoint = "inhibition"
reported_measurement = 28

[[record]]
molecule = "CCN(CC)CCOC(=O)c1ccc(N=Cc2c(O)n(C)c(=O)[nH]c2=O)cc1"
endpoint = "inhibition"
reported_measurement = -180

[[record]]
molecule = "CCOC(=O)c1ccc(N=Cc2c(O)n(C)c(=O)n(C)c2=O)cc1"
endpoint = "inhibition"
reported_measurement = -54.3

[[record]]
molecule = "CCOC(=O)c1ccc(N=Cc2c(O)[nH]c(=O)[nH]c2=O)cc1"
endpoint = "inhibition"
reported_measurement = 49.9

[[record]]
molecule = "CCOC(=O)N1CCN(c2cc3nccnc3cc2F)CC1"
endpoint = "inhibition"
reported_measurement = -52.1


---

Target: Serine/threonine-protein kinase PLK1 (Homo sapiens)
Assay: Plk1 polo box domain binding inhibitors, SAR follow-up, biochemical, fluorescence polarization, purchased analogs (AID 1053)
Conditions: Plk1 PBD fluorescence polarization peptide binding; at 20 µM; stronger effect = higher value
Each entry below carries its reported inhibition.
Endpoint: inhibition (%)

[[record]]
molecule = "CCOC(=O)c1ccc(NC(=O)C2OCCc3ccccc32)cc1 (stereo unspecified)"
endpoint = "inhibition"
reported_measurement = -101

[[record]]
molecule = "CCOC(=O)c1ccc(NC(=O)C2C3C=CC(C3)C2(C)C(=O)O)cc1 (stereo unspecified)"
endpoint = "inhibition"
reported_measurement = -56.5

[[record]]
molecule = "CC(=O)N(CN1C(=O)c2cccc([N+](=O)[O-])c2C1=O)c1ccc2c(c1)oc1ccccc12"
endpoint = "inhibition"
reported_measurement = -35.9

[[record]]
molecule = "CCn1nc(-c2ccc(C)cc2)nc2c(=O)n(C)c(=O)nc1-2"
endpoint = "inhibition"
reported_measurement = 16.7

[[record]]
molecule = "CCOC(=O)c1ccc(N=Cc2c(O)n(Cc3ccccc3)c(=O)[nH]c2=O)cc1"
endpoint = "inhibition"
reported_measurement = -22.9

[[record]]
molecule = "CCOC(=O)c1ccc(NC(=O)c2cc(C)cc(C)c2)cc1"
endpoint = "inhibition"
reported_measurement = -13.8

[[record]]
molecule = "CC(=O)N(/N=C1\\Sc2ccccc2C1=O)c1ccccc1C"
endpoint = "inhibition"
reported_measurement = 17.5

[[record]]
molecule = "CC(=O)N(/N=C1\\Sc2ccccc2C1=O)c1ccc(Br)cc1"
endpoint = "inhibition"
reported_measurement = 34.2

[[record]]
molecule = "Cn1nc(-c2ccc([N+](=O)[O-])cc2)nc2c(=O)n(C)c(=O)nc1-2"
endpoint = "inhibition"
reported_measurement = 31.6

[[record]]
molecule = "CC(=O)N(/N=C1\\Sc2ccccc2C1=O)c1ccccc1"
endpoint = "inhibition"
reported_measurement = 24.7

[[record]]
molecule = "O=c1[nH]c2c(c(O)c1-c1ccccc1)c(=O)n(-c1ccccc1)c(=O)n2-c1ccccc1"
endpoint = "inhibition"
reported_measurement = -40.4

[[record]]
molecule = "COc1ccc(N(CN2C(=O)c3ccccc3C2=O)C(=O)C(F)(F)F)cc1"
endpoint = "inhibition"
reported_measurement = -44.5

[[record]]
molecule = "CCOC(=O)c1ccc(NC(=O)C2CC(=O)N=C(N)S2)cc1 (stereo unspecified)"
endpoint = "inhibition"
reported_measurement = -67.2

[[record]]
molecule = "CC(=O)N(CN1C(=O)c2ccc(Br)cc2C1=O)c1ccc(Cl)cc1"
endpoint = "inhibition"
reported_measurement = -43

[[record]]
molecule = "CN(C)c1ccc(-c2nnc3c(n2)c(=O)n(C)c(=O)n3C)cc1"
endpoint = "inhibition"
reported_measurement = -22

[[record]]
molecule = "CC(=O)N(/N=C1\\Sc2ccccc2C1=O)c1ccccc1Cl"
endpoint = "inhibition"
reported_measurement = -48.1

[[record]]
molecule = "CC(=O)N(CN1C(=O)c2ccccc2C1=O)c1ccc(Oc2ccccc2)cc1"
endpoint = "inhibition"
reported_measurement = -50

[[record]]
molecule = "CC(=O)c1ccc(N(CN2C(=O)c3ccc([N+](=O)[O-])cc3C2=O)C(C)=O)cc1"
endpoint = "inhibition"
reported_measurement = -32.8

[[record]]
molecule = "COc1ccc(N(/N=C2\\Sc3ccccc3C2=O)C(C)=O)cc1"
endpoint = "inhibition"
reported_measurement = 30.5

[[record]]
molecule = "Cn1c(=O)[nH]c2nnc(-c3ccc(Cl)cc3)nc2c1=O"
endpoint = "inhibition"
reported_measurement = 28.8

[[record]]
molecule = "CC(=O)N(/N=C1\\Sc2ccccc2C1=O)c1cc(C)ccc1C"
endpoint = "inhibition"
reported_measurement = 33

[[record]]
molecule = "CCOC(=O)c1ccc(N=Cc2c(O)n(-c3cccc(C)c3)c(=O)[nH]c2=O)cc1"
endpoint = "inhibition"
reported_measurement = -57.1

[[record]]
molecule = "CC(=O)N(/C=C1\\Sc2ccccc2C1=O)c1cccc(C)c1"
endpoint = "inhibition"
reported_measurement = -111

[[record]]
molecule = "CCOC(=O)c1ccc(N=Cc2c(O)n(CC)c(=O)[nH]c2=O)cc1"
endpoint = "inhibition"
reported_measurement = -76.6

[[record]]
molecule = "CCOC(=O)c1ccc(N=Cc2c(O)n(-c3cccc(OC)c3)c(=O)[nH]c2=O)cc1"
endpoint = "inhibition"
reported_measurement = -40.6

[[record]]
molecule = "CCN(CC)CCOC(=O)c1ccc(NC(=O)c2cc(OC)c(OC)cc2OC)cc1"
endpoint = "inhibition"
reported_measurement = -46.3

[[record]]
molecule = "CC(=O)N(CN1C(=O)c2ccccc2C1=O)c1ccc(F)cc1"
endpoint = "inhibition"
reported_measurement = -46.9

[[record]]
molecule = "CCn1nc(-c2ccc(C(=O)OC)cc2)nc2c(=O)n(C)c(=O)nc1-2"
endpoint = "inhibition"
reported_measurement = -9.29

[[record]]
molecule = "COC(=O)c1ccc(NC(=O)c2cc(-c3ccc(C)o3)nc3ccccc23)cc1"
endpoint = "inhibition"
reported_measurement = 25.4

[[record]]
molecule = "CC(=O)N(/N=C1\\Sc2ccccc2C1=O)c1ccccc1I"
endpoint = "inhibition"
reported_measurement = -47.1

[[record]]
molecule = "Cc1ccc(N(CN2C(=O)c3ccc([N+](=O)[O-])cc3C2=O)C(=O)C(c2ccccc2)c2ccccc2)cc1"
endpoint = "inhibition"
reported_measurement = -39.6


Data provenance is PubChem BioAssay AID1053.
